target: ITK (Homo sapiens, UniProt Q08881); test: ITK degradation HiBiT assay; format: cell-based; design: expressed in transfected cells; host or cells: Molt4 (ATCC CRL-1552), monoclonal clone 1C10, engineered to carry the HiBiT tag; conditions: C-terminal HiBiT-tagged Molt4 cells, 4 hrs
quantityName: log10(DC50) (log10 of the value in nM)
In our notation, the value equals log10 of DC50 in nM.

log10(DC50) reading for CC1(C)CCc2c(C(=O)Nc3cnn(C4CCN(CC5CCN(c6ccc([C@@H]7CCC(=O)NC7=O)cc6)CC5)CC4)c3)n[nH]c2C1 : 0.31

Lookup result for C[C@@]12Cc3[nH]nc(C(=O)Nc4cnn(C5CCC(CN6CCc7cc(C8CCC(=O)NC8=O)ccc7C6)CC5)c4)c3C[C@@H]1C2(F)F (mixture of isomers) ; measured log10(DC50): 1.80

response.value for C[C@@]12Cc3[nH]nc(C(=O)Nc4cnn(C5CCC(CN6CCN(c7ccc(C8CCC(=O)NC8=O)cc7)CC6)CC5)c4)c3C[C@@H]1C2(F)F (mixture of isomers) (field: log10(DC50)) = 0.15

Entry C[C@@]12Cc3[nH]nc(C(=O)Nc4ccc(C5CCN(CC6CCN(c7ccc(C8CCC(=O)NC8=O)cc7)CC6)CC5)nc4)c3C[C@@H]1C2(F)F (stereo partly drawn) ; log10(DC50) = 0.23

Please fill in: log10(DC50) reported for C[C@@H](C(=O)N(C)c1ccc2cc(-c3n[nH]c4c3C[C@@H]3C(F)(F)[C@]3(C)C4)[nH]c2c1)N1CCN(CC2CCN(c3ccc(N4CCC(=O)NC4=O)cn3)CC2)CC1 = -2.40

# log10(DC50) of CC1(C)CCc2c(-c3cc4ccc(N5CCC6(CCN(Cc7ccc8c(c7)C(=O)N(C7CCC(=O)NC7=O)C8=O)CC6)C5=O)cc4[nH]3)n[nH]c2C1 (stereo not drawn) = 0.89

What the record says about C[C@@]12Cc3[nH]nc(C(=O)Nc4cnn(C5CCC(CN6CCC(Oc7ccc(C8CCC(=O)NC8=O)cn7)CC6)CC5)c4)c3C[C@@H]1C2(F)F (stereo partly drawn) : log10(DC50) is 0.57

Briefly, log10(DC50) measured for CN(C(=O)CC1CCN(CC2CCN(c3ccc(C4CCC(=O)NC4=O)cn3)CC2)CC1)c1ccc2cc(-c3n[nH]c4c3C[C@@H]3C(F)(F)[C@]3(C)C4)[nH]c2c1 (stereo partly drawn) : 0.20

Given item CC1(C)CCc2c(-c3cc4cc(F)c(C(=O)N5CCN(CC6CCN(c7ccc(C8CCC(=O)NC8=O)nc7)CC6)CC5)cc4[nH]3)n[nH]c2C1 (stereo not drawn) , the value recorded as its log10(DC50) is -1.22

Lab book: log10(DC50) of C[C@@]12Cc3[nH]nc(C(=O)Nc4cnn([C@H]5CCN(C[C@H]6CCN(c7ccc(C8CCC(=O)NC8=O)cc7)C6)C[C@@H]5F)c4)c3C[C@@H]1C2(F)F (stereo partly drawn) noted as -0.15

Quick note, log10(DC50) for CN(C(=O)CC[C@H]1CCN(c2ccc3c(c2)C(=O)N(C2CCC(=O)NC2=O)C3=O)C1)c1ccc2cc(-c3n[nH]c4c3C[C@@H]3C(F)(F)[C@]3(C)C4)[nH]c2c1 (stereo in doubt) [Compound 68] landed at -0.30

For reference, reported log10(DC50) for C[C@@H](C(=O)N(C)c1ccc2cc(-c3n[nH]c4c3CCC(C)(C)C4)[nH]c2c1)N1CCN(C[C@H]2CCN(c3ccc4c(c3)CN(C3CCC(=O)NC3=O)C4=O)C2)CC1 (stereo partly drawn) stands at -0.54

Form: compound = Cn1c(=O)n([C@@H]2CCC(=O)NC2=O)c2cccc(N3CCC(CN4CCN(C(=O)c5ccc6cc(-c7n[nH]c8c7CCC(C)(C)C8)[nH]c6c5)CC4)CC3)c21 ; log10(DC50) = 0.72

Recorded result, C[C@@H]1CN(CC2CCN(c3ccc(C4CCC(=O)NC4=O)cn3)CC2)CCN1C(=O)c1ccc2cc(-c3n[nH]c4c3CCC(C)(C)C4)[nH]c2c1 (stereo partly drawn) , log10(DC50): 0.85

Noted for C[C@@]12Cc3[nH]nc(C(=O)Nc4cnn(C5CN(CC6CCN(c7ccc(C8CCC(=O)NC8=O)cc7)CC6)C5)c4)c3C[C@@H]1C2(F)F (stereo partly drawn) : its log10(DC50) reads -0.62

The recorded log10(DC50) for C[C@@]12Cc3[nH]nc(C(=O)Nc4cnn(C5CCC(CN6CCN(c7ccc(C8CCC(=O)NC8=O)cn7)CC6)CC5)c4)c3C[C@@H]1C2(F)F (mixture of isomers) is 0.52

Reported log10(DC50) of C[C@@H]1CN(C(=O)c2ccc3cc(-c4n[nH]c5c4CCC(C)(C)C5)[nH]c3c2)CCN1CC1CCN(c2ccc(C3CCC(=O)NC3=O)cn2)CC1 (stereo partly drawn) : 0.69

The recorded log10(DC50) for entry C[C@@]12Cc3[nH]nc(C(=O)Nc4cnn(CC5CN(C(=O)C6CN(c7ccc8c(c7)C(=O)N(C7CCC(=O)NC7=O)C8=O)C6)C5)c4)c3C[C@@H]1C2(F)F (stereo partly drawn) equals 0.46

Quick note, log10(DC50) for C[C@@]12Cc3[nH]nc(C(=O)Nc4cnn(CC5CN(C(=O)C6CN(C7CCN(c8ccc9c(c8)C(=O)N(C8CCC(=O)NC8=O)C9=O)CC7)C6)C5)c4)c3C[C@@H]1C2(F)F (stereo partly drawn) landed at 0.46

Recorded result, Cn1c(=O)n(C2CCC(=O)NC2=O)c2ccc(N3CCC(CN4CCC5(CC4)CCN(c4ccc6cc(-c7n[nH]c8c7CCC(C)(C)C8)[nH]c6c4)C5=O)CC3)cc21 (stereo not drawn) , log10(DC50): -0.80

====

assay: Mouse PK analysis (blood/plasma concentration after oral administration); format: in vivo; details: mouse, plasma, oral, 90 mg/kg; mice, 1 h; read-out: Cal. Conc. Total (μM) 1 h
Could you please report measured concentration at 1 h for the items listed next?
Write it as a number; the unit µM goes unstated.

Reported concentration at 1 h ( CN(C(=O)CCN1CCN(c2ccc3c(c2)C(=O)N(C2CCC(=O)NC2=O)C3=O)CC1)c1ccc2cc(-c3n[nH]c4c3CCC(C)(C)C4)[nH]c2c1 (stereo not drawn) ) = 0.041

Sample C[C@@H](C(=O)N(C)c1ccc2cc(-c3n[nH]c4c3CCC(C)(C)C4)[nH]c2c1)N1CCN(CC2CCN(c3ccc(C(=O)NC4CCC(=O)NC4=O)nc3)CC2)CC1 (stereo partly drawn) ; concentration at 1 h observed: 0.2

concentration at 1 h for CN(C(=O)CCC1CCN(c2ccc3c(c2)C(=O)N(C2CCC(=O)NC2=O)C3=O)C1)c1ccc2cc(-c3n[nH]c4c3CCC(C)(C)C4)[nH]c2c1 (stereo not drawn) is 1.6

====

Can you tell me Dmax for the items I'm about to list?
Target: ITK (Homo sapiens, UniProt Q08881)
Sequence (Q08881 1-620): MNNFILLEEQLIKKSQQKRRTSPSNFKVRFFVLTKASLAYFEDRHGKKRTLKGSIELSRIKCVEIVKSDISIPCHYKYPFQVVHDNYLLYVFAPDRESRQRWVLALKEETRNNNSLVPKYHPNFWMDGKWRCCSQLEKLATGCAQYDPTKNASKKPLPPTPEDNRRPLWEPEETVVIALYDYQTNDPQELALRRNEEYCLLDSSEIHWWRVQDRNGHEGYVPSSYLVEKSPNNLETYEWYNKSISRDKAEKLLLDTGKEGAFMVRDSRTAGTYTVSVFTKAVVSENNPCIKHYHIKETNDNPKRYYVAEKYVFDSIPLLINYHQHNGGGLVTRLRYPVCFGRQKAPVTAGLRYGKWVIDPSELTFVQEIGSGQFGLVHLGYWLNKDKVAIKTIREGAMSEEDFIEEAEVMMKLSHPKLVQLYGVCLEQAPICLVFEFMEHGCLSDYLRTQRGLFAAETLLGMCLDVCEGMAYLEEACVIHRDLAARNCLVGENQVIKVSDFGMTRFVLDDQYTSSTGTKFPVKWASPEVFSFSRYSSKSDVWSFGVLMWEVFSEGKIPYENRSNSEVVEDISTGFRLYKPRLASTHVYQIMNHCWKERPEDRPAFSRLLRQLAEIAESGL
Experiment: ITK degradation HiBiT assay
Type: cell-based
Set-up: expressed in transfected cells; host or cells: Molt4 (ATCC CRL-1552), monoclonal clone 1C10, engineered to carry the HiBiT tag
Conditions: MOLT-4, C-terminal HiBiT-tagged Molt4 cells, 4 hrs
Number only, in %; omit the unit.

// C[C@@]12Cc3[nH]nc(-c4cc5cc(C(=O)N6CCN(C[C@@H]7CCN(c8ccc(C9CCC(=O)NC9=O)cc8)C7)CC6)ccc5[nH]4)c3C[C@@H]1C2(F)F (some centres unmarked) [Compound 143] : Dmax value = 81

Record C[C@@]12Cc3[nH]nc(C(=O)Nc4cnn(C5CCC(CN6CCN(c7ccc(C8CCC(=O)NC8=O)cc7)CC6)CC5)c4)c3C[C@@H]1C2(F)F (mixture of isomers) [Compound 126] , field Dmax: 91

Entry C[C@@H](C(=O)N(C)c1ccc2cc(-c3n[nH]c4c3CCC(C)(C)C4)[nH]c2c1)N1CCN(C[C@H]2CCN(c3ccc4c(c3)n(C)c(=O)n4C3CCC(=O)NC3=O)C2)CC1 (some centres unmarked) [Compound 5] , Dmax reported as 74

Dmax reported for this molecule CC1(C)CCc2c(-c3cc4cc(C(=O)N5CCC(CN6CCc7cc(C8CCC(=O)NC8=O)ccc7C6)CC5)ccc4[nH]3)n[nH]c2C1 (centres unmarked) [Compound 194] : 64

Entry CC1(C)CCc2c(-c3cc4ccc(C(=O)N5CCC(CN6CCC7(C6)CN(c6ccc(C8CCC(=O)NC8=O)cn6)C7)CC5)cc4[nH]3)n[nH]c2C1 (centres unmarked) [Compound 61] — recorded Dmax = 83

The reported value for C[C@@H](C(=O)N(C)c1cc2[nH]c(-c3n[nH]c4c3CCC(C)(C)C4)cc2cc1F)N1CCN(CC2CCN(c3ccc(C4CCC(=O)NC4=O)cn3)CC2)CC1 (some centres unmarked) [Compound 188] in terms of Dmax is 85

# Dmax (molecule: CN(C(=O)CCC1CCN(c2ccc(C3CCC(=O)NC3=O)cn2)C1)c1ccc2cc(-c3n[nH]c4c3C[C@@H]3C(F)(F)[C@]3(C)C4)[nH]c2c1 (some centres unmarked) [Compound 70] ) is 53

Entry CN(C(=O)CCC1CCN(c2ccc3c(c2)C(=O)N(C2CCC(=O)NC2=O)C3=O)C1)c1ccc2cc(-c3n[nH]c4c3CCC(C)(C)C4)[nH]c2c1 (centres unmarked) [Compound 1] , Dmax reported as 88

What the record says about C[C@@]12Cc3[nH]nc(-c4cc5cc(F)c(C(=O)N6CCN(C[C@@H]7CCN(c8ccc(C9CCC(=O)NC9=O)cc8)C7)CC6)cc5[nH]4)c3C[C@@H]1C2(F)F (some centres unmarked) [Compound 146] : Dmax is 73

Measured Dmax, C[C@@H]1CN(C(=O)c2ccc3cc(-c4n[nH]c5c4CCC(C)(C)C5)[nH]c3c2)C[C@H](C)N1CC1CCN(c2ccc(C3CCC(=O)NC3=O)cc2)CC1 (some centres unmarked) [Compound 157] : 84

Entry Cc1cc(N2CCC(CN3CCN(C(=O)c4ccc5cc(-c6n[nH]c7c6CCC(C)(C)C7)[nH]c5c4)CC3)CC2)ccc1C1CCC(=O)NC1=O (centres unmarked) [Compound 182] — recorded Dmax = 70
